# assay summary: Apparent pH change with temperature of buffering systems as indicated by phenol red
# Assay type: physicochemical
# condition info: phenol red pH indicator; 50 mM total buffer; equilibrium with CO2 in air
Readings of apparent change in pH with change in temperature for the listed molecules
Give your result in millipH/°C. as a bare value.

The following molecules have reported results that may help.
molecule	units label	result value
NC(CO)(CO)CO [TRIS, tris[Hydroxymethyl]aminomethane]	millipH/°C.	-14.93
O=S(=O)(O)CCN1CCOCC1 [MES, 2-[N-Morpholino]ethanesulfonic acid]	millipH/°C.	-4.74

Challenge: Data request, read-out apparent change in pH with change in temperature, for O=S(=O)(O)CCCNC(CO)(CO)CO
Response given: -12.07

Challenge: Data request, read-out apparent change in pH with change in temperature, for O=S(=O)(O)CCN1CCN(CCO)CC1
Response given: -3.92
